Origin of measurements: paper PMC11125359

# test_name: Cytotoxic activity, MTT assay, normal lung (WI-38)
# Type: cell-based
# assay_context: human, Viability %, WI-38, 2nd concentration
measurement_name: viability at 48 h (%)
Unit % implied. Number only.

Task item: Need viability at 48 h of COc1cccc2c1C(=O)c1c(O)c3c(c(O)c1C2=O)C[C@@](O)(C(=O)CO)C[C@@H]3O[C@H]1C[C@H](N)[C@H](O)[C@H](C)O1 [Doxorubicin, reference compound] , thanks.
Reply: 69.1

---

# test_system: bovine serum albumin (BSA) (Bos taurus)
# Sequence (P02769 25-607): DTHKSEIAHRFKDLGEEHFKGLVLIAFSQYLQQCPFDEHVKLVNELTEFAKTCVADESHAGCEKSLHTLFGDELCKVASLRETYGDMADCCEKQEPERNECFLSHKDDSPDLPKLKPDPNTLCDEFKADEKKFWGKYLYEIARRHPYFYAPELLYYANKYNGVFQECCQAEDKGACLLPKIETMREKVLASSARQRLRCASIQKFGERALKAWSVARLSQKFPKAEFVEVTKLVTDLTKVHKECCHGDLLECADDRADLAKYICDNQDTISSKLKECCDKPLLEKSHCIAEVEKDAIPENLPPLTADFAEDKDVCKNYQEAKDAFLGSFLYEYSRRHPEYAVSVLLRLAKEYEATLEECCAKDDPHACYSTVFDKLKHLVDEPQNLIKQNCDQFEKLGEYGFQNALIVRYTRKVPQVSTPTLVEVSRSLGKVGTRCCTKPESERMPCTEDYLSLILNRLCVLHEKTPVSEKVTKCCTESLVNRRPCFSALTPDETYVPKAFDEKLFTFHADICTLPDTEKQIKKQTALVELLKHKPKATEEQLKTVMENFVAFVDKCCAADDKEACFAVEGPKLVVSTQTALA
# assay_context: equal concentrations (1000 µg/mL); mean ± SE
Known Inhibition (%) Protein Denaturation of a selection of molecules
Unit % implied. Number only.

Would you please look over these solved cases?
Task item: Need Inhibition (%) Protein Denaturation of Cc1nn(-c2ccccc2)c(Cl)c1C=Nc1[nH]nc(Nc2ccccc2)c1C(=O)Nc1ccccc1 [6a] , thanks.
Reply: 15.33

Task item: What do you have for COc1ccc(Nc2n[nH]c(N=Cc3c(C)n(C)n(-c4ccccc4)c3=O)c2C(=O)Nc2ccc(Cl)cc2)cc1 [7f] ?
Reply: 27.75

Task item: What do you have for COc1ccc(Nc2n[nH]c(N=Cc3c(C)nn(-c4ccccc4)c3Cl)c2C(=O)Nc2ccccc2)cc1 [6d] ?
Reply: 15.62

Task item: What do you have for COc1ccc(Nc2n[nH]c(N=Cc3c(C)nn(-c4ccccc4)c3Cl)c2C(=O)Nc2ccc(C)cc2)cc1 [6e] ?
Reply: 15.67

Task item: What do you have for COc1ccc(Nc2n[nH]c(/N=C/c3ccc(N4CCCCC4)cc3)c2C(=O)Nc2ccc(C)cc2)cc1 [5e] ?
Reply: 27.33

Continue with the next molecule.
Task item: Need Inhibition (%) Protein Denaturation of Cc1ccc(NC(=O)c2c(Nc3ccccc3)n[nH]c2N=Cc2c(C)nn(-c3ccccc3)c2Cl)cc1 [6b] , thanks.
Reply: 17.94

---

# test_name: Cytotoxic activity, MTT assay, normal lung (WI-38)
# Format: cell-based
# assay_context: human
measurement_name: IC50 at 48 h (µM)
Unit µM implied. Number only.

Task item: Need IC50 at 48 h of COc1cccc2c1C(=O)c1c(O)c3c(c(O)c1C2=O)C[C@@](O)(C(=O)CO)C[C@@H]3O[C@H]1C[C@H](N)[C@H](O)[C@H](C)O1 [Doxorubicin, reference compound] , thanks.
Reply: 305

---

# System: human colon cancer (Caco-2) cell line
# test_name: cells
# Format: cell-based
# assay_context: Conc.: 5a 215.26, 5d 202.19, 5e 196.61, 5f 189.03, 7a 203.44, 7f 179.85, DOX 183.99
measurement_name: Viability %, Caco-2, 5th concentration (%)
Unit % implied. Number only.

Would you please look over these solved cases?
Task item: Need Viability %, Caco-2, 5th concentration of COc1ccc(Nc2n[nH]c(/N=C/c3ccc(N4CCCCC4)cc3)c2C(=O)Nc2ccccc2)cc1 , thanks.
Reply: 23.43

Task item: What do you have for COc1ccc(Nc2n[nH]c(N=Cc3ccc(N4CCCCC4)cc3)c2C(=O)Nc2ccc(Cl)cc2)cc1 ?
Reply: 32.34

Task item: What do you have for Cc1c(C=Nc2[nH]nc(Nc3ccccc3)c2C(=O)Nc2ccccc2)c(=O)n(-c2ccccc2)n1C ?
Reply: 22.93

New cases:
Task item: Need Viability %, Caco-2, 5th concentration of COc1ccc(Nc2n[nH]c(N=Cc3c(C)n(C)n(-c4ccccc4)c3=O)c2C(=O)Nc2ccc(Cl)cc2)cc1 , thanks.
Reply: 24.59

Task item: What do you have for COc1ccc(Nc2n[nH]c(/N=C/c3ccc(N4CCCCC4)cc3)c2C(=O)Nc2ccc(C)cc2)cc1 ?
Reply: 11.43
